# Assay method text: Cytotoxicity against human THP1 cells measured after 72 hrs by resazurin assay
# Type: cell-based, THP-1
# Test context: THP-1 cells
Reported CC50 at 72 h by item:

Example cases with answers are listed next.
compound=O=C(/C=C/c1ccc([N+](=O)[O-])o1)c1ccc(C2CCCCC2)cc1 endpoint_name="CC50 at 72 h" reported="3.1 to 31.1 µM"
compound=O=C(/C=C/c1ccc(Cl)s1)c1ccc(-n2ccnc2)cc1 endpoint_name="CC50 at 72 h" reported="> 50 µM"
compound=COc1ccc(/C=C/C(=O)c2cccc(Br)c2)cc1 endpoint_name="CC50 at 72 h" reported="> 50 µM"
compound=CSc1ccc(C(=O)/C=C/c2ccco2)cc1 endpoint_name="CC50 at 72 h" reported="> 50 µM"
compound=O=C(/C=C/c1ccco1)c1ccc(N2CCCCC2)cc1 endpoint_name="CC50 at 72 h" reported="> 50 µM"
compound=CC(C)(C)c1ccc(C(=O)/C=C/c2ccc([N+](=O)[O-])s2)cc1 endpoint_name="CC50 at 72 h" reported="8.4 to 8.49 µM"
compound=CC(C)(C)c1ccc(C(=O)/C=C/c2ccc([N+](=O)[O-])o2)cc1 endpoint_name="CC50 at 72 h" reported="> 50 µM"
compound="C[C@@H]1[C@H](O)[C@@H](C)/C=C/C=C/C=C/C=C/C=C/C=C/C=C/[C@H](O[C@@H]2O[C@H](C)[C@@H](O)[C@H](N)[C@@H]2O)C[C@@H]2O[C@](O)(C[C@@H](O)C[C@@H](O)[C@H](O)CC[C@@H](O)C[C@@H](O)CC(=O)O[C@H]1C)C[C@H](O)[C@H]2C(=O)O [AMPHOTERICIN B]" endpoint_name="CC50 at 72 h" reported="> 50 µM"
compound=Cc1cccc(C(=O)/C=C/c2ccc([N+](=O)[O-])o2)c1 endpoint_name="CC50 at 72 h" reported="42.1 µM"
compound=O=C(/C=C/c1ccc([N+](=O)[O-])s1)c1ccc(C2CCCCC2)cc1 endpoint_name="CC50 at 72 h" reported="> 50 µM"

Moving on to the next compound.
// recorded CC50 at 72 h for O=C(/C=C/c1ccc([N+](=O)[O-])o1)c1ccc(-c2ccccc2)cc1 : 50.4 µM

* * *

# selectivity ratio values compiled below
# Assay method text: in vitro
# Test context: human, THP-1 cells
# Description: Selectivity index, ratio of CC50 for human THP1 cells to EC50 for Leishmania infantum MHOM/BR/1972/BH046 amastigotes

Completed entries (count: 4):
structure_smiles=O=C(/C=C/c1cccc([N+](=O)[O-])c1)c1ccc(N2CCCCC2)cc1 endpoint_name="selectivity ratio" reported="> 1.62"
structure_smiles=O=C(/C=C/c1ccc([N+](=O)[O-])s1)c1ccc(-n2ccnc2)cc1 endpoint_name="selectivity ratio" reported=0.75
structure_smiles=O=C(/C=C/c1ccc([N+](=O)[O-])o1)c1ccc(C2CCCCC2)cc1 endpoint_name="selectivity ratio" reported="2.8 to 2.84"
structure_smiles=O=C(/C=C/c1ccc(Cl)s1)c1ccc(-n2ccnc2)cc1 endpoint_name="selectivity ratio" reported="> 2.33"

Form: molecule = O=C(/C=C/c1ccc([N+](=O)[O-])o1)c1ccc(I)cc1 ; selectivity ratio = 1.8 to 1.82

selectivity ratio recorded for this molecule, O=C(/C=C/c1ccc([N+](=O)[O-])o1)c1cccc(Br)c1 , is 0.6 to 0.63

* * *

# Tested on: Leishmania infantum
# Assay method text: microbe, parasite or virus in culture
# Assay type: functional
# Test context: MHOM/BR/1972/BH046, 72 h
# Description: Anti-leishmanial activity against Leishmania infantum MHOM/BR/1972/BH046 amastigotes infected in cells measured after 3 days by Draq5 staining based assay
Endpoint name: EC50

Example entries and their recorded answers appear below.
structure_smiles=O=C(/C=C/c1ccc([N+](=O)[O-])s1)c1ccc(C2CCCCC2)cc1 endpoint_name=EC50 reported="> 50 µM"
structure_smiles=CCCCc1ccc(C(=O)/C=C/c2ccc([N+](=O)[O-])o2)cc1 endpoint_name=EC50 reported="> 50 µM"
structure_smiles=CN(C)c1ccc(/C=C/C(=O)c2ccc(-c3ccccc3)cc2)cc1 endpoint_name=EC50 reported="> 50 µM"
structure_smiles=O=C(/C=C/c1ccc([N+](=O)[O-])s1)c1ccc(-n2ccnc2)cc1 endpoint_name=EC50 reported="31.4 µM"
structure_smiles=COc1ccc(/C=C/C(=O)c2ccc(-c3ccccc3)cc2)cc1 endpoint_name=EC50 reported="> 50 µM"
structure_smiles=CSc1ccc(C(=O)/C=C/c2ccc([N+](=O)[O-])s2)cc1 endpoint_name=EC50 reported="> 50 µM"
structure_smiles=O=C(/C=C/c1cccc([N+](=O)[O-])c1)c1ccc(N2CCCCC2)cc1 endpoint_name=EC50 reported="30.8 µM"
structure_smiles=Cc1ccccc1C(=O)/C=C/c1ccc([N+](=O)[O-])o1 endpoint_name=EC50 reported="37.7 µM"

# input for lookup
Given the compound O=C(/C=C/c1ccc([N+](=O)[O-])o1)c1ccc(N2CCNCC2)cc1 and test system Leishmania infantum, the measured EC50 is 9.6 µM

* * *

# Assay method text: Cytotoxicity against human THP1 cells measured after 72 hrs by resazurin assay
# Assay type: cell-based, THP-1
# Test context: THP-1 cells
The following compounds are shown together with reported CC50 at 72 h values.
The reply should contain only the number, in µM.

structure_smiles=CCCCc1ccc(C(=O)/C=C/c2ccc([N+](=O)[O-])s2)cc1 reported=17.1

In plain terms, Cc1ccc(C(=O)/C=C/c2ccc([N+](=O)[O-])s2)cc1 has a documented CC50 at 72 h of 13.5

* * *

# System: Leishmania infantum
# Assay method text: microbe, parasite or virus in culture
# Type: functional
# Test context: MHOM/BR/1972/BH046, 72 h
pEC50: −log10 of the molar value.
Endpoint name: pEC50

Below: 5 compounds and their reported pEC50.
structure_smiles=COc1ccc(/C=C/C(=O)c2cccc(I)c2)cc1 reported="< 4.30"
structure_smiles=O=C(/C=C/c1ccc([N+](=O)[O-])o1)c1ccc(N2CCCCC2)cc1 reported=5.20
structure_smiles=Cc1cccc(C(=O)/C=C/c2ccc([N+](=O)[O-])o2)c1 reported="< 4.30"
structure_smiles=CC(C)(C)c1ccc(C(=O)/C=C/c2ccco2)cc1 reported="< 4.30"
structure_smiles=Cc1ccc(C(=O)/C=C/c2ccc([N+](=O)[O-])s2)cc1 reported="< 4.30"

The compound identified as O=C(/C=C/c1ccc([N+](=O)[O-])o1)c1cccc(Br)c1 registered its pEC50 at 4.62

Per the record, CSc1ccc(C(=O)/C=C/c2ccc([N+](=O)[O-])o2)cc1 has pEC50 of 5.03

For CCCCc1ccc(C(=O)/C=C/c2ccc([N+](=O)[O-])s2)cc1 the compound record lists pEC50 as < 4.30

Please fill in: pEC50 reported for O=C(/C=C/c1ccc([N+](=O)[O-])s1)c1ccc(N2CCOCC2)cc1 = < 4.30

// field: pEC50; key: O=C(/C=C/c1ccco1)c1ccc(N2CCCCC2)cc1 ; value = < 4.30

* * *

# Tested on: Leishmania infantum
# Assay method text: microbe, parasite or virus in culture
# Format: functional
# Test context: MHOM/BR/1972/BH046, 72 h
Measured pEC50, listed per entry for reference.
Just the number, please; pEC50 means minus log10 of the concentration in mol/L.

structure_smiles=CC(C)(C)c1ccc(C(=O)/C=C/c2ccc([N+](=O)[O-])s2)cc1 target_system="Leishmania infantum" reported=4.51

Shift focus to the following entry.
The molecule CSc1ccc(C(=O)/C=C/c2ccco2)cc1 showed pEC50 equal to 4.34

* * *

# System: Leishmania infantum
# Assay method text: microbe, parasite or virus in culture
# Format: functional
# Test context: MHOM/BR/1972/BH046, 72 h
pEC50: −log10 of the molar value.
Endpoint name: pEC50

Recorded results for 2 compounds are shown here.
structure_smiles=O=C(/C=C/c1ccc([N+](=O)[O-])cc1)c1ccc(N2CCCCC2)cc1 reported="< 4.30"
structure_smiles=CC(C)(C)c1ccc(C(=O)/C=C/c2ccc([N+](=O)[O-])o2)cc1 reported="< 4.30"

Now consider the entry below.
Measured pEC50 of COc1ccc(/C=C/C(=O)c2cccc(Br)c2)cc1 : < 4.30
